List of IC50 values.
Target: recombinant human FAPα (rhFAPα) (Homo sapiens)
Construct: purchased R&S system (so in the source)
Sequence (Q12884 1-760): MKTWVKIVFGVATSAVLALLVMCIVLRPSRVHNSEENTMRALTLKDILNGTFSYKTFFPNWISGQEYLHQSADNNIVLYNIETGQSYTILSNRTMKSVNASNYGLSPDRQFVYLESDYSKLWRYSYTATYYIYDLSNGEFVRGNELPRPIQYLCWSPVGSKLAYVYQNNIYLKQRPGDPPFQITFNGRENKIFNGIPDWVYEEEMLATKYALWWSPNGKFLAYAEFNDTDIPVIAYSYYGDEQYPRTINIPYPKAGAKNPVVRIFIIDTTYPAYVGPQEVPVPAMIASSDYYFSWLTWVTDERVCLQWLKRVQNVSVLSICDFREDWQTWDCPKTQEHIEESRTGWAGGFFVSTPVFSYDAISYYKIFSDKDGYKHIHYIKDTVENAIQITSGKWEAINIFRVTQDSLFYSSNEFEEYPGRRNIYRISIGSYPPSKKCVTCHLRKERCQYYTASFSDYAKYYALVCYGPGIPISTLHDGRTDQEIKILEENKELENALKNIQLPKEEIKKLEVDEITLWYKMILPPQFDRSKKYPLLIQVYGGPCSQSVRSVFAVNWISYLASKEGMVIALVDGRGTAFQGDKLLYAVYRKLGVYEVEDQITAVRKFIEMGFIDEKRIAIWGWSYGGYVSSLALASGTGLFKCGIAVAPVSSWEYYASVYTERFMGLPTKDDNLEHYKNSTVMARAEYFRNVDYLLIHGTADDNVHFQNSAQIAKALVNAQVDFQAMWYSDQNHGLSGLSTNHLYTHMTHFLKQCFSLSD
Experiment: FAPα enzymatic exopeptidase (dipeptidase) activity assay, Z-Gly-Pro-AMC
Format: biochemical
Conditions: exopeptidase; Table 2; read-out: rhFAPα (exo IC50)

compound	IC50
N#C[C@@H]1CC(F)(F)CN1C(=O)CNC(=O)c1ccncc1NC(=O)COc1ccc(Cl)c(F)c1	< 1 µM
N#C[C@@H]1CC(F)(F)CN1C(=O)CNC(=O)c1ccncc1NCc1ccc(F)cc1	< 1 µM
CC(Nc1cnccc1C(=O)NCC(=O)N1CC(F)(F)C[C@H]1C#N)c1ccc(F)cc1 (stereo partly shown)	< 1 µM
N#C[C@@H]1CC(F)(F)CN1C(=O)CNC(=O)c1ccncc1/C=C/c1ccc(F)cc1	< 1 µM

Where these numbers come from: patent US20200216417A1
